Measured IC50, listed per entry for reference.
Test: Antiproliferative activity against human DU145 cells after 72 hrs by MTT assay
Assay type: functional, cell-based
Conditions: DU-145, 72 h
Starred links: 1 amine or outer side, 2 acyl side, 3 side chain; linkers in the order of their positions; H or OH if unused. Non-standard residues stand in square brackets, D forms with d. Residues, ends and D or L forms follow the SMILES beside them. *: point of attachment. X1 = NP(=O)(OCc1c(F)c(F)c(N*)c(F)c1F)N(CCCl)CCCl; X2 = NP(=O)(OCc1ccc(N*)c(F)c1)N(CCCl)CCCl; X5 = NP(=O)(OCc1ccc(N*)cc1F)N(CCCl)CCCl; X4 = NP(=O)(OCc1ccc(N*)cc1)N(CCCl)CCCl; Glutaryl = O=C(CCCC(=O)[*:2])[*:1]; Hyp = O=C(O)[C@@H]1C[C@@H](O)CN1; Chg = N[C@H](C(=O)O)C1CCCCC1

molecule	IC50
C[C@H](NC(=O)[C@@H]1C[C@@H](O)CN1C(=O)CCCC(=O)O)C(=O)N[C@@H](CO)C(=O)N[C@H](C(=O)N[C@@H](CCC(N)=O)C(=O)Nc1ccc(COP(N)(=O)N(CCCl)CCCl)c(F)c1)C1CCCCC1 (stereo not given in full) (Glutaryl-[Hyp]AS[Chg]Q-X5)	> 100 µM
C[C@H](NC(=O)[C@@H]1C[C@@H](O)CN1C(=O)CCCC(=O)O)C(=O)N[C@@H](CO)C(=O)N[C@H](C(=O)N[C@@H](CCC(N)=O)C(=O)Nc1c(F)c(F)c(COP(N)(=O)N(CCCl)CCCl)c(F)c1F)C1CCCCC1 (stereo not given in full) (Glutaryl-[Hyp]AS[Chg]Q-X1)	> 100 µM
C[C@H](NC(=O)[C@@H]1C[C@@H](O)CN1C(=O)CCCC(=O)O)C(=O)N[C@@H](CO)C(=O)N[C@H](C(=O)N[C@@H](CCC(N)=O)C(=O)Nc1ccc(COP(N)(=O)N(CCCl)CCCl)cc1)C1CCCCC1 (stereo not given in full) (Glutaryl-[Hyp]AS[Chg]Q-X4)	35 µM
COc1cccc2c1C(=O)c1c(O)c3c(c(O)c1C2=O)C[C@](O)(C(=O)CO)C[C@H]3O[C@@H]1C[C@@H](NC(=O)[C@@H](CC(C)C)NC(=O)[C@@H](CO)NC(=O)[C@@H](CCC(N)=O)NC(=O)[C@H](NC(=O)[C@@H](CO)NC(=O)[C@@H](C)NC(=O)[C@@H]2C[C@@H](O)CN2C(=O)CCCC(=O)O)C2CCCCC2)[C@@H](O)[C@@H](C)O1 (stereo in doubt)	> 100 µM
C[C@H](NC(=O)[C@@H]1C[C@@H](O)CN1C(=O)CCCC(=O)O)C(=O)N[C@@H](CO)C(=O)N[C@H](C(=O)N[C@@H](CCC(N)=O)C(=O)Nc1ccc(COP(N)(=O)N(CCCl)CCCl)cc1F)C1CCCCC1 (stereo not given in full) (Glutaryl-[Hyp]AS[Chg]Q-X2)	> 100 µM
